# experiment: ATG_GLI_CIS: Attagene CIS-FACTORIAL HepG2 Assay for human Zinc Finger Protein GLI1 (AID 2282945)
# assay_setup: HepG2, Attagene cis-factorial reporter mRNA, GLI element; actives raise or lower the signal
The source made the active and inactive calls. How the source made its calls: active means hit-call score of the fitted dose curve at least 0.9, where 1 is the maximum; inactive means score below 0.9.
Response enum: yes (1) = active, no (0) = inactive

[in] // param item: C=CCCl ; yields the recorded call
[out] no (0)

[in] // param item: Cc1cc(SCc2sc(-c3ccc(C(F)(F)F)c(F)c3)nc2C)ccc1OCC(=O)O ; yields the recorded call
[out] no (0)

[in] // param item: O=C(O)CC(O)(CC(=O)O)C(=O)O ; yields the recorded call
[out] no (0)

[in] // param item: CS(=O)(=O)c1ccc(C(=O)C2C(=O)CCCC2=O)c(Cl)c1COCC(F)(F)F ; yields the recorded call
[out] no (0)

[in] // param item: Oc1c(Cl)cc(Cl)cc1Cl ; yields the recorded call
[out] no (0)

[in] // param item: O=NN1CCCCCC1 ; yields the recorded call
[out] no (0)

[in] // param item: C#CCO ; yields the recorded call
[out] no (0)

[in] // param item: Cc1c([N+](=O)[O-])c(C)c([N+](=O)[O-])c(C(C)(C)C)c1[N+](=O)[O-] ; yields the recorded call
[out] no (0)

[in] // param item: C=C(C)[C@@H]1CC=C(C=O)CC1 ; yields the recorded call
[out] no (0)

[in] // param item: Nc1cccnc1 ; yields the recorded call
[out] no (0)

[in] // param item: CC(C)(COCC1CO1)COCC1CO1 (centres undefined) ; yields the recorded call
[out] no (0)

[in] // param item: O=C(CCl)Nc1ccccc1 ; yields the recorded call
[out] yes (1)

[in] // param item: CC(C)O.CC(C)O.OCCN(CCO)CCO.OCCN(CCO)CCO.[Ti] ; yields the recorded call
[out] no (0)

[in] // param item: O=C(O)c1cc(I)cc(I)c1I ; yields the recorded call
[out] no (0)

[in] // param item: CCCSP(=S)(OCC)Oc1ccc(SC)cc1 (centres undefined) ; yields the recorded call
[out] no (0)

[in] // param item: CCOP(=S)(OCC)SCSc1cc(Cl)ccc1Cl ; yields the recorded call
[out] no (0)

[in] // param item: COc1ccccc1N ; yields the recorded call
[out] no (0)

[in] // param item: c1ccc2c(c1)Oc1ccccc1O2 ; yields the recorded call
[out] no (0)

[in] // param item: CC1CC(=O)O1 (centres undefined) ; yields the recorded call
[out] no (0)

###

# test_system: X-box-binding protein 1 (Homo sapiens) (UniProt P17861)
# Sequence (P17861 whole entry, looked up): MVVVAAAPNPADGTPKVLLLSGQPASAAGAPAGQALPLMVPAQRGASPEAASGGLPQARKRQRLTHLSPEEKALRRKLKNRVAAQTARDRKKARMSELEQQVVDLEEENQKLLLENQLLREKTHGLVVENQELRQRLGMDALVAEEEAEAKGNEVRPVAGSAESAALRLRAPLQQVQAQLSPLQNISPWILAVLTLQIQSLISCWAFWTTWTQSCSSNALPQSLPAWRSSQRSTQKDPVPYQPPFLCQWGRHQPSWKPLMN
# experiment: ATG_Xbp1_CIS: Attagene CIS-FACTORIAL HepG2 Assay for human X-box Binding Protein 1 (XBP1) (AID 2282972)
# assay_setup: HepG2 XBP1 cis-element reporter, Attagene multiplex; actives raise or lower the signal
Active and inactive are the calls of the source. The calls were made as follows: active = hit-call score of the fitted dose curve at least 0.9, where 1 is the maximum; inactive = score below 0.9.
Response enum: Y = active, N = inactive

[in] // param item: CC(C)(C)c1cc([N+](=O)[O-])cc(C(C)(C)C)c1O ; yields the recorded call
[out] Y

[in] // param item: O=C(O)COc1ccc(Cl)cc1 ; yields the recorded call
[out] N

[in] // param item: OCCCCO ; yields the recorded call
[out] N

[in] // param item: CCOC(=O)Cc1ccccc1 ; yields the recorded call
[out] N

[in] // param item: O=C(NC(=O)c1c(F)cccc1F)Nc1cc(Cl)c(F)c(Cl)c1F ; yields the recorded call
[out] N

[in] // param item: N#Cc1ccccc1N ; yields the recorded call
[out] N

[in] // param item: C[C@H]1C(=O)O[C@@H]2CCN3CC=C(COC(=O)[C@](C)(O)[C@]1(C)O)[C@H]23 ; yields the recorded call
[out] N

[in] // param item: Cc1cc(-c2cc(C)c(N)c(C)c2)cc(C)c1N ; yields the recorded call
[out] N

[in] // param item: O=NN1CCCCCC1 ; yields the recorded call
[out] N
